The reported measurements were obtained from patent US20200247897A1.

Tested on: SNU-C2B
Assay: Drug combination screen (ATPlite, Synergy Score), SNU-C2B
Conditions: compound in combination with IgG1-hDR5-01-G56T-E430G + IgG1-hDR5-05-E430G; SNU-C2B; 72 hour ATPlite, 6x6 matrix
Doc: threshold 2 (exclusive). Items with Synergy Score SNU-C2B beneath it return true; others return false.

Known results for molecules:
{"columns": ["chemical-structure", "assigned-category"],
 "data": [
  ["Cn1c2ccccc2c2c3c(c4c5ccccc5n(CCC#N)c4c21)CNC3=O", "true"],
  ["CC(=O)O[C@@]12CO[C@@H]1C[C@H](O)[C@@]1(C)C(=O)[C@H](O)C3=C(C)[C@@H](OC(=O)[C@H](O)[C@@H](NC(=O)OC(C)(C)C)c4ccccc4)C[C@@](O)([C@@H](OC(=O)c4ccccc4)[C@H]21)C3(C)C", "false"],
  ["Cn1c(=O)n(-c2ccc(C(C)(C)C#N)cc2)c2c3cc(-c4cnc5ccccc5c4)ccc3ncc21", "false"],
  ["CNC(=O)c1ccc(-c2cnc3ncc(Cc4ccc5ncccc5c4)n3n2)cc1F", "true"],
  ["Cc1cc(NC(=O)c2cccc(NC(=O)/C=C/CN(C)C)c2)ccc1Nc1nccc(-c2cccnc2)n1", "true"],
  ["CS(=O)(=O)c1ccc(C(=O)Nc2ccc(Cl)c(-c3ccccn3)c2)c(Cl)c1", "true"]
]}

Consider now this further molecule.
Given the entry COc1cc2nccc(Oc3ccc(NC(=O)C4(C(=O)Nc5ccc(F)cc5)CC4)cc3)c2cc1OC , would its reported Synergy Score SNU-C2B be below 2?
true
